System: LOC_OS01G14860-cb001;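 further: purified Escherichia coli-expressed rice kinase domain construct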
PROCEDURE_DETAILS: thermal shift delta Tm vs DMSO control; higher = stronger stabilization (binding)
DETAILS: 12.5 µM; protein concentration 2 µM
// label = Criterion met if thermal shift delta Tm is not less than 1 °C, otherwise Criterion not met

Cc1ccc(NC(=O)c2ccc(CN3CCN(C)CC3)cc2)cc1Nc1nc(-c2cccnc2)cs1    Criterion not met
CO[C@H]1CC[C@H](N2C(=O)CNc3ncc(-c4ccc(C(C)(C)O)nc4)nc32)CC1    Criterion not met
CCOc1cc2ncc(C#N)c(Nc3ccc(F)c(Cl)c3)c2cc1NC(=O)/C=C/CN(C)C [Pelitinib (EKB-569)]    Criterion met
COc1ccc2c(c1)[C@]1(C[C@H]1c1ccc3c(/C=C/c4ccc(CN5C[C@@H](C)O[C@@H](C)C5)cc4)n[nH]c3c1)C(=O)N2    Criterion met
O=C(NC(NC(=S)Nc1ccc(F)c([N+](=O)[O-])c1)C(Cl)(Cl)Cl)C(c1ccccc1)c1ccccc1 (stereo unspecified)    Criterion met
O=c1c(O)c(-c2cc(O)c(O)c(O)c2)oc2cc(O)cc(O)c12    Criterion met

Form field: thermal shift delta Tm at least 1 °C? Entry: CC[C@H](CO)Nc1nc(NCc2ccccc2)c2ncn(C(C)C)c2n1 [Roscovitine (Seliciclib,CYC202)]
Criterion not met

Form field: thermal shift delta Tm at least 1 °C? Entry: "CN1CCN(c2ccc(Nc3cc(-c4cccc(-n5ccc6cc(C7CC7)cc(F)c6c5=O)c4CO)cn(C)c3=O)nc2)CC1"
Criterion not met

Form field: thermal shift delta Tm at least 1 °C? Entry: "C[C@H](NC(=O)c1c(N)nn2cccnc12)c1cc2cccc(C#Cc3cnn(C)c3)c2c(=O)n1-c1ccccc1"
Criterion not met

Form field: thermal shift delta Tm at least 1 °C? Entry: "Cc1ccccc1CN1C2=NCCN2C(=O)C2=C1CCN(Cc1ccccc1)C2"
Criterion not met

Form field: thermal shift delta Tm at least 1 °C? Entry: "CNc1nc(Nc2cn(C(C)(C)C#N)nc2C)ncc1C(F)(F)F"
Criterion not met

Form field: thermal shift delta Tm at least 1 °C? Entry: "CN1CCN(S(=O)(=O)c2ccc(-c3cnc(N)c(C(=O)Nc4cccnc4)n3)cc2)CC1"
Criterion met
